target-or-test-system: YRDCWT (human YRDC, ΔN43) (Homo sapiens, UniProt Q86U90, I221T)
Construct: lacks first 43 residues (N-terminal truncation); N-terminal His6 tag removed with TEV; E. coli BL21(DE3); homodimer
Sequence (Q86U90 44-279 I221T): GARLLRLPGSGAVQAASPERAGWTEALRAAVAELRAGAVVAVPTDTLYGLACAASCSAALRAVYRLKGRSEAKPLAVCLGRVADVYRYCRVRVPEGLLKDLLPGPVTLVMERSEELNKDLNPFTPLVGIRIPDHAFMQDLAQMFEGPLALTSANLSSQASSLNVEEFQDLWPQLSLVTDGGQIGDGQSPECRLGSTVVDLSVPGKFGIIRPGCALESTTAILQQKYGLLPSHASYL
assay-name: biochemical
Design: SYPRO Orange DSF; apparent Kd from Tm versus ligand concentration
test-context: With ATP and L-threonine; DSF apparent KD
endpoint-label: pKd
# pKd is unitless: minus log10 of the molar concentration; print number only

Challenge: Need pKd of O=C(O)O [bicarbonate] , thanks.
Response given: 2.08
